Biological target: human JAK2 (Homo sapiens, UniProt O60674)
Construct: catalytic domain (amino acids 808-1132; catalog number PV4210); GST
Sequence (O60674 808-1132): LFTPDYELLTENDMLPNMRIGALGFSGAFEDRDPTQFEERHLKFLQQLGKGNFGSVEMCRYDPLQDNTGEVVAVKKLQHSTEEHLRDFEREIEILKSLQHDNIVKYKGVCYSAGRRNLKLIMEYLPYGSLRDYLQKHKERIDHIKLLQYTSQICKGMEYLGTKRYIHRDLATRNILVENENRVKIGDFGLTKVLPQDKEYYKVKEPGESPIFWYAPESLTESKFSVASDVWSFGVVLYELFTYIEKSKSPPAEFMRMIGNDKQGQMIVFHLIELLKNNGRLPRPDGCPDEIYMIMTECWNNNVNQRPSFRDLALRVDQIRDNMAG
Experiment: JAK2 inhibition assay (polyGT substrate / Ulight-JAK1 peptide)
Conditions: recombinant human JAK2 catalytic domain; polyGT or Ulight-JAK1 peptide assay
# IC50 listing for each entry below

| molecule | IC50 |
| --- | --- |
| CN(c1cc2c(cn1)ncn2C)c1ccc(C2CN(CC(N)=O)C2)cc1OC(F)F | 101 to 500 nM |
| Cc1cc(-c2cn[nH]c2)ccc1N(C)c1cc2c(cn1)ncn2C | 101 to 500 nM |

INPUT: Using the record for CN(c1cc2c(cn1)ncn2C)c1ccc(CN(C)S(C)(=O)=O)cc1OC(F)F , report its IC50.
OUTPUT: 0.01 to 100 nM

INPUT: Okay, and CCc1nc(C2CN(C(=O)OC(C)(C)C)C2)cnc1N(C)c1cc2c(cn1)ncn2C ?
OUTPUT: > 1000 nM

INPUT: Okay, and CCN(c1ccc2occc2c1)c1cc2c(cn1)ncn2C ?
OUTPUT: > 1000 nM

INPUT: Okay, and CCc1cc(N2CC(C(=O)NCC#N)C2)ncc1N(C)c1cc2c(cn1)ncn2C ?
OUTPUT: 501 to 1000 nM

----------
Biological target: human JAK1 (Homo sapiens, UniProt P23458)
Construct: catalytic domain, amino acids 866-1154; catalog number PV4774
Sequence (P23458 866-1154): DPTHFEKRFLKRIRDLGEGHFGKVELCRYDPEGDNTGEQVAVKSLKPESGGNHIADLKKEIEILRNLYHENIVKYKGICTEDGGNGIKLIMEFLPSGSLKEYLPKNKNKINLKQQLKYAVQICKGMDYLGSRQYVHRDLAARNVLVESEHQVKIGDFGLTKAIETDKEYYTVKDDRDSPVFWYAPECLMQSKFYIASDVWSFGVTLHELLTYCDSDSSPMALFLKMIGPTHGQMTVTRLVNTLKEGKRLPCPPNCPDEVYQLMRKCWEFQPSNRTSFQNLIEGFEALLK
Test: JAK1 inhibition assay (polyGT substrate / Ulight-JAK1 peptide)
Conditions: recombinant human JAK1 catalytic domain; polyGT or Ulight-JAK1 peptide assay
# IC50 listing for each entry below

Recorded results for 4 molecules are shown here.
| molecule | readout type | reported result |
| --- | --- | --- |
| CCc1ccccc1N(CC(F)F)c1cc2c(cn1)ncn2C [Compound 284] | IC50 | 0.01 to 100 nM |
| CN(c1cc2c(cn1)ncn2C)c1ccc(CNS(C)(=O)=O)cc1F | IC50 | 0.01 to 100 nM |
| CCc1cc(C2CN(C(=O)C3CCOCC3)C2)ncc1N(C)c1cc2c(cn1)ncn2C | IC50 | 501 to 1000 nM |
| CCc1cc(CNS(=O)(=O)N(C)C)ccc1N(C)c1cc2c(cn1)ncn2C | IC50 | 0.01 to 100 nM |

Let us examine a further case.
INPUT: So what IC50 did CCc1cc(C2CN(C(=O)C(F)F)C2)ncc1N(C)c1cc2c(cn1)ncn2C get with human JAK1 (Homo sapiens, UniProt P23458)?
OUTPUT: 0.01 to 100 nM

----------
Target: human JAK2 (Homo sapiens)
Construct: catalytic domain (amino acids 808-1132; catalog number PV4210); GST
Experiment: JAK2 inhibition assay (polyGT substrate / Ulight-JAK1 peptide)
Conditions: recombinant human JAK2 catalytic domain; polyGT or Ulight-JAK1 peptide assay
readout type: IC50

Recorded results for 5 molecules are shown here.
| molecule | IC50 |
| --- | --- |
| COc1cc(-c2c(C)nn(C)c2C)ncc1N(C)c1cc2c(cn1)ncn2C [Compound 312] | > 1 µM |
| CCn1nc(C)cc1N(C)c1cc2c(cn1)ncn2C [Compound 305] | > 1 µM |
| CCc1cc(N2CCCC2=O)ncc1N(C)c1cc2c(cn1)ncn2C [Compound 318] | 0.501 to 1 µM |
| CCc1cc(C(=O)N2CCOCC2)ccc1N(C)c1cc2c(cn1)ncn2C [Compound 117] | > 1 µM |
| Cc1cc(OCc2ccccc2)ccc1N(C)c1cc2c(cn1)ncn2C [Compound 53] | > 1 µM |

Let us examine a further case.
INPUT: Using the record for CCc1cc(CNC2CCS(=O)(=O)C2)ccc1N(C)c1cc2c(cn1)ncn2C (stereo not drawn) [Compound 300] , report its IC50.
OUTPUT: 0.101 to 0.5 µM

----------
# pIC50 listing for each entry below
Biological target: human JAK2 (Homo sapiens, UniProt O60674)
Construct: catalytic domain (amino acids 808-1132; catalog number PV4210); GST
Test: JAK2 inhibition assay (polyGT substrate / Ulight-JAK1 peptide)
Details: recombinant human JAK2 catalytic domain; polyGT or Ulight-JAK1 peptide assay
pIC50: −log10 of the molar value.

| compound | reported result |
| --- | --- |
| CN(c1cc2c(cn1)ncn2C)c1ccccc1OC(F)(F)F | < 6.00 |
| Cc1c(OCc2ccc(Cl)cc2)cccc1N(C)c1cc2c(cn1)ncn2C | < 6.00 |
| Cc1ccc(OCC(C)C)cc1N(C)c1cc2c(cn1)ncn2C | < 6.00 |
| CCc1cc(C(C#N)N2CCOCC2)ccc1N(C)c1cc2c(cn1)ncn2C (stereo not shown) | 7.00 to 11.00 |
| CN(c1cc2c(cn1)ncn2C)c1ccccc1F | < 6.00 |

Let us examine a further case.
INPUT: So what pIC50 did COC(=O)c1ccc(N(C)c2cc3c(cn2)ncn3C)c(C)c1 get with human JAK2 (Homo sapiens, UniProt O60674)?
OUTPUT: < 6.00

----------
Target: human JAK1 (Homo sapiens)
Construct: catalytic domain, amino acids 866-1154; catalog number PV4774
Assay: JAK1 inhibition assay (polyGT substrate / Ulight-JAK1 peptide)
Settings: recombinant human JAK1 catalytic domain; polyGT or Ulight-JAK1 peptide assay
pIC50: −log10 of the molar value.
readout type: pIC50

| compound | pIC50 |
| --- | --- |
| CCn1nc(C)cc1N(C)c1cc2c(cn1)ncn2C | < 6.00 |
| CCc1cc(C(C#N)N2CCC(C#N)C2)ccc1N(C)c1cc2c(cn1)ncn2C (centres unmarked) | 7.00 to 11.00 |
| CCN(c1ccc2c(cnn2C)c1)c1cc2c(cn1)ncn2C | 6.30 to 7.00 |
| Cc1c(O)cccc1N(C)c1cc2c(cn1)ncn2C | < 6.00 |

INPUT: So what pIC50 did COc1cc(C2CCN(S(C)(=O)=O)CC2)ncc1N(C)c1cc2c(cn1)ncn2C get with human JAK1 (Homo sapiens)?
OUTPUT: 7.00 to 11.00

----------
Biological target: human JAK1 (Homo sapiens, UniProt P23458)
Construct: catalytic domain, amino acids 866-1154; catalog number PV4774
Experiment: JAK1 inhibition assay (polyGT substrate / Ulight-JAK1 peptide)
Conditions: recombinant human JAK1 catalytic domain; polyGT or Ulight-JAK1 peptide assay
pIC50: −log10 of the molar value.
readout type: pIC50

| compound | pIC50 |
| --- | --- |
| CCc1cc(C(C#N)N2CCNC(=O)C2)ccc1N(C)c1cc2c(cn1)ncn2C (stereo not drawn) | 7.00 to 11.00 |
| CCc1cc(CNS(=O)(=O)N2CCCCC2)ccc1N(C)c1cc2c(cn1)ncn2C | 7.00 to 11.00 |
| CN(c1cc2c(cn1)ncn2C)c1ccc(C2=CCN(C(=O)OC(C)(C)C)CC2)cc1OC(F)F | 6.30 to 7.00 |
| CNC(=O)c1ccc(N(C)c2cc3c(cn2)ncn3C)c(C)c1 | 6.30 to 7.00 |
| CCc1cc(C(=O)N2CCS(=O)(=O)CC2)ccc1N(C)c1cc2c(cn1)ncn2C | < 6.00 |

INPUT: Using the record for CCc1cc(CN2CCC(S(C)(=O)=O)C2)ccc1N(C)c1cc2c(cn1)ncn2C (stereo not drawn) , report its pIC50.
OUTPUT: 7.00 to 11.00

----------
Test system: pSTAT1(2)-luciferase reporter in HeLa cells triggered with human OSM
Test: JAK-STAT signalling assay
Type: cell-based
Conditions: Homo sapiens, HeLa, HeLa cells, pSTAT1(2)-luciferase reporter, human OSM 33 ng/mL; read-out: JAK-STAT IC50
readout type: IC50

| compound | test target | IC50 |
| --- | --- | --- |
| CCc1cc(-c2cn[nH]c2)ccc1N(C)c1cc2c(cn1)ncn2C [Compound 210] | pSTAT1(2)-luciferase reporter in HeLa cells triggered with human OSM | 0.001 to 0.5 µM |
| CCc1cc(-c2cnn(CC(=O)N(C)C)c2)ccc1N(C)c1cc2c(cn1)ncn2C [Compound 220] | pSTAT1(2)-luciferase reporter in HeLa cells triggered with human OSM | 0.501 to 1 µM |
| Cc1cc(C(N)=O)ccc1N(C)c1cc2c(cn1)ncn2C [Compound 32] | pSTAT1(2)-luciferase reporter in HeLa cells triggered with human OSM | > 1 µM |

Let us examine a further case.
INPUT: So what IC50 did CCc1cc(-c2cnccn2)ccc1N(C)c1cc2c(cn1)ncn2C [Compound 144] get with pSTAT1(2)-luciferase reporter in HeLa cells triggered with human OSM?
OUTPUT: > 1 µM

----------
Target: human JAK2 (Homo sapiens, UniProt O60674)
Construct: catalytic domain (amino acids 808-1132; catalog number PV4210); GST
Experiment: JAK2 inhibition assay (polyGT substrate / Ulight-JAK1 peptide)
Settings: recombinant human JAK2 catalytic domain; polyGT or Ulight-JAK1 peptide assay
readout type: IC50

Recorded results for 5 molecules are shown here.
| molecule | IC50 |
| --- | --- |
| CN(c1cc2c(cn1)ncn2C)c1c(F)cc(CC#N)cc1F [Compound 405] | 0.01 to 100 nM |
| CCc1ccccc1N(c1cc2c(cn1)ncn2C)C1CC1 [Compound 37] | > 1000 nM |
| CCc1cc(C(=O)NCCc2ccccc2)ccc1N(C)c1cc2c(cn1)ncn2C [Compound 99] | > 1000 nM |
| Cc1cc(O)ccc1N(C)c1cc2c(cn1)ncn2C [Compound 38] | > 1000 nM |
| CCc1ccc(C#N)cc1N(C)c1cc2c(cn1)ncn2C [Compound 83] | 101 to 500 nM |

INPUT: Using the record for CCc1cc(C2CN(C(=O)CC#N)C2)ncc1N(C)c1cc2c(cn1)ncn2C [Compound 335] , report its IC50.
OUTPUT: 501 to 1000 nM

INPUT: Okay, and CCc1cc(C(C#N)N2CC(NS(C)(=O)=O)C2)ccc1N(C)c1cc2c(cn1)ncn2C (stereo not drawn) [Compound 455] ?
OUTPUT: 0.01 to 100 nM

INPUT: Okay, and CN(c1cc2c(cn1)ncn2C)c1ccc(C2CN(S(=O)(=O)C(F)F)C2)cc1OC(F)F [Compound 370] ?
OUTPUT: 0.01 to 100 nM

INPUT: Okay, and CCc1cc(C2CCC2)ncc1N(C)c1cc2c(cn1)ncn2C [Compound 434] ?
OUTPUT: 101 to 500 nM
